method-summary: Bioavailability in rat (Fisher) (fasted)
Type: ADME, organism-based
condition-info: in vivo
Each entry below lists one item and its recorded bioavailability value.
metric: bioavailability (%)

[[record]]
query_smiles = "CC(C)[C@@H]1[C@H](OC(=O)N[C@@H](CSc2ccccc2)[C@H](O)CN2C[C@H]3CCS[C@H]3C[C@H]2C(=O)NC(C)(C)C)CCS1(=O)=O"
metric = "bioavailability"
unit_name = "%"
measurement = 3.5

[[record]]
query_smiles = "C[C@H]1[C@@H](OC(=O)N[C@@H](CSc2ccccc2)[C@H](O)CN2C[C@H]3CCS[C@H]3C[C@H]2C(=O)NC(C)(C)C)CCS1(=O)=O"
metric = "bioavailability"
unit_name = "%"
measurement = 7.4

